Listed next: entries and their corresponding Residual STS activity [%] Tumor.
Target: STS activity in murine livers and tumors (Mus musculus)
Sequence (P50427 23-624): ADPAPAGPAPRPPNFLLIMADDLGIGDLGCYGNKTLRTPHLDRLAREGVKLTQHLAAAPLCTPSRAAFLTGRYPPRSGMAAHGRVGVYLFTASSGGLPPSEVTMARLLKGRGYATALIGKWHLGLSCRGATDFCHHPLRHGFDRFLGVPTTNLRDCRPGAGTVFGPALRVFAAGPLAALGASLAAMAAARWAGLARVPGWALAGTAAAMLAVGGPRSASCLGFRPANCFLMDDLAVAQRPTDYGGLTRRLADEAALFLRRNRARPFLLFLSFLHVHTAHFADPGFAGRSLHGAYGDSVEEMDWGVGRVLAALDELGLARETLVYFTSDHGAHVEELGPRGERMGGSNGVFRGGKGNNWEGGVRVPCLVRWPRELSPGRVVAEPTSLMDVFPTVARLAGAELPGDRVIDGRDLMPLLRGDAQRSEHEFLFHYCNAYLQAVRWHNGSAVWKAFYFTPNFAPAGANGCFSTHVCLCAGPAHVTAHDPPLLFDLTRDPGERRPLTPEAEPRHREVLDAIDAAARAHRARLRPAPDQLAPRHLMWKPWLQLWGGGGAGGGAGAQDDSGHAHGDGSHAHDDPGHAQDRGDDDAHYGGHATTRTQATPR
Test: determination of STS activity in murine livers and tumors of treated mice
Conditions: tumor tissue of mice treated per os at 50 mg/kg b.w.

Some molecules with recorded Residual STS activity [%] Tumor:
>>> result("NS(=O)(=O)Oc1ccc(-c2cn(-c3cc(F)cc(F)c3)nn2)cc1")
"1,3%"
>>> result("NS(=O)(=O)Oc1ccc(-c2cn(-c3cc(Cl)cc(Cl)c3)nn2)cc1")
"5,1%"
>>> result("NS(=O)(=O)Oc1ccc(-c2cn(-c3cccc(Cl)c3)nn2)cc1")
"5,8%"

Turning now to a further record.
Q: Name the recorded Residual STS activity [%] Tumor for NS(=O)(=O)Oc1ccc(-c2cn(-c3cccc(F)c3)nn2)cc1 .
Result: 5,2%

----------
MCHC by entry:
Format: in vivo
Settings: Table S1, MTD study, 50 mg/kg

Solved cases (4 shown):
>>> result("NS(=O)(=O)Oc1ccc(-c2cn(-c3cc(F)cc(F)c3)nn2)cc1 [5l]")
"36,6±0,4 g/dL"
>>> result("NS(=O)(=O)Oc1ccc(-c2cn(-c3ccc(F)c(F)c3F)nn2)cc1 [5e]")
"37,2±0,7 g/dL"
>>> result("NS(=O)(=O)Oc1ccc(-c2cn(-c3cc(Cl)cc(Cl)c3)nn2)cc1 [4b]")
"37,1±0,4 g/dL"
>>> result("NS(=O)(=O)Oc1ccc(-c2cn(-c3cccc(Cl)c3)nn2)cc1 [4a]")
"36,9±0,5 g/dL"

Okay, next one:
Q: So what's the measured MCHC for this one? NS(=O)(=O)Oc1ccc(-c2cn(-c3cccc(F)c3)nn2)cc1 [5g]
Result: 36,7±0,2 g/dL

----------
Target: STS in MCF-7 cells (Homo sapiens)
Construct: The radioisotope cellular assay was performed using the MCF-7 cell line; endogenous in cells; host or cells: MCF-7
Test: radioisotope cellular assay with [3H]E1S in MCF-7 cells
Type: cell-based
Conditions: MCF7, 20 h, MCF-7 cells; 10 nM inhibitor; substrate [3H]E1S, 3 nM; triplicate; read-out: residual STS activity [%] 10 nM
quantityName: remaining activity at 0.01 µM (%)
Numeric answer only, unit % assumed.

Previously resolved entries follow.
>>> measurednumber("NS(=O)(=O)Oc1ccc(-c2cn(-c3ccc(F)cc3)nn2)cc1 [5a]")
60.2
>>> measurednumber("NS(=O)(=O)Oc1ccc(-c2cn(-c3cccc(Br)c3)nn2)cc1 [4c]")
39.9

Q: GET /values?readout=remaining activity at 0.01 µM&item= NS(=O)(=O)Oc1ccc(-c2cn(-c3ccc(OC(F)(F)F)cc3)nn2)cc1 [5i]
Result: 9.5

Q: # input molecule: NS(=O)(=O)Oc1ccc(-c2cn(-c3cccc(C(F)(F)F)c3)nn2)cc1 [5m] ; wanted: its remaining activity at 0.01 µM
Result: 59.9

Q: Field request: remaining activity at 0.01 µM | item: NS(=O)(=O)Oc1ccc(-c2cn(-c3cccc(I)c3)nn2)cc1 [4d]
Result: 31.8

----------
Assay type: in vivo
Settings: Table S1, MTD study, 50 mg/kg
quantityName: MON

>>> result("NS(=O)(=O)Oc1ccc(-c2cn(-c3ccc(F)c(F)c3F)nn2)cc1")
"3,3±1%"
>>> result("NS(=O)(=O)Oc1ccc(-c2cn(-c3cccc(F)c3)nn2)cc1")
"3,4±0,6%"
>>> result("NS(=O)(=O)Oc1ccc(-c2cn(-c3cccc(Cl)c3)nn2)cc1")
"3,3±0,6%"
>>> result("NS(=O)(=O)Oc1ccc(-c2cn(-c3cc(Cl)cc(Cl)c3)nn2)cc1")
"3,3±0,5%"

--- query ---
Q: I'd like to know its MON. The compound in question is NS(=O)(=O)Oc1ccc(-c2cn(-c3cc(F)cc(F)c3)nn2)cc1
Result: 2,9±0,4%

----------
List of HCT values.
Format: in vivo
Conditions: Table S1, MTD study, 50 mg/kg

>>> result("NS(=O)(=O)Oc1ccc(-c2cn(-c3cccc(F)c3)nn2)cc1")
"41,1±0,5%"
>>> result("NS(=O)(=O)Oc1ccc(-c2cn(-c3cc(Cl)cc(Cl)c3)nn2)cc1")
"44,1±1,3%"
>>> result("NS(=O)(=O)Oc1ccc(-c2cn(-c3cc(F)cc(F)c3)nn2)cc1")
"42±1,9%"
>>> result("NS(=O)(=O)Oc1ccc(-c2cn(-c3ccc(F)c(F)c3F)nn2)cc1")
"42,3±1,3%"

Please find the next molecule below.
Q: Bench note: what HCT did NS(=O)(=O)Oc1ccc(-c2cn(-c3cccc(Cl)c3)nn2)cc1 show?
Result: 41±0,2%

----------
Assay type: in vivo
Conditions: Table S1, MTD study, 50 mg/kg
quantityName: RDW

These recorded examples may help you get a feel for the data.
>>> result("NS(=O)(=O)Oc1ccc(-c2cn(-c3cc(Cl)cc(Cl)c3)nn2)cc1")
"17,5±0,6%"
>>> result("NS(=O)(=O)Oc1ccc(-c2cn(-c3cc(F)cc(F)c3)nn2)cc1")
"17,3±0,2%"
>>> result("NS(=O)(=O)Oc1ccc(-c2cn(-c3cccc(Cl)c3)nn2)cc1")
"17,9±0,6%"
>>> result("NS(=O)(=O)Oc1ccc(-c2cn(-c3ccc(F)c(F)c3F)nn2)cc1")
"17,6±0,7%"

Turning now to a further molecule:
Q: Query (molecule): NS(=O)(=O)Oc1ccc(-c2cn(-c3cccc(F)c3)nn2)cc1 ; field requested: RDW
Result: 17,4±0,3%

----------
The entries below are paired with their reported MPV.
Test: blood morphology, blood biochemistry and organ weights of mice with 67NR tumor
Conditions: Table S2, mice with 67NR tumor, 50 mg/kg

Some compounds with recorded MPV:
>>> result("NS(=O)(=O)Oc1ccc(-c2cn(-c3cc(Cl)cc(Cl)c3)nn2)cc1 [4b]")
"4,9±0,2 fL"
>>> result("NS(=O)(=O)Oc1ccc(-c2cn(-c3ccc(F)c(F)c3F)nn2)cc1 [5e]")
"4,9±0,1 fL"
>>> result("NS(=O)(=O)Oc1ccc(-c2cn(-c3cccc(F)c3)nn2)cc1 [5g]")
"5±0,1 fL"

Now let's try a different one.
Q: What does the data say about its MPV? Entry: NS(=O)(=O)Oc1ccc(-c2cn(-c3cccc(Cl)c3)nn2)cc1 [4a]
Result: 4,9±0,1 fL

----------
Target: STS isolated from the human placenta (Homo sapiens, UniProt P08842)
Construct: radioisotope enzymatic assay using STS isolated from the human placenta; from tissue; host or cells: human placenta
Sequence (P08842 22-583): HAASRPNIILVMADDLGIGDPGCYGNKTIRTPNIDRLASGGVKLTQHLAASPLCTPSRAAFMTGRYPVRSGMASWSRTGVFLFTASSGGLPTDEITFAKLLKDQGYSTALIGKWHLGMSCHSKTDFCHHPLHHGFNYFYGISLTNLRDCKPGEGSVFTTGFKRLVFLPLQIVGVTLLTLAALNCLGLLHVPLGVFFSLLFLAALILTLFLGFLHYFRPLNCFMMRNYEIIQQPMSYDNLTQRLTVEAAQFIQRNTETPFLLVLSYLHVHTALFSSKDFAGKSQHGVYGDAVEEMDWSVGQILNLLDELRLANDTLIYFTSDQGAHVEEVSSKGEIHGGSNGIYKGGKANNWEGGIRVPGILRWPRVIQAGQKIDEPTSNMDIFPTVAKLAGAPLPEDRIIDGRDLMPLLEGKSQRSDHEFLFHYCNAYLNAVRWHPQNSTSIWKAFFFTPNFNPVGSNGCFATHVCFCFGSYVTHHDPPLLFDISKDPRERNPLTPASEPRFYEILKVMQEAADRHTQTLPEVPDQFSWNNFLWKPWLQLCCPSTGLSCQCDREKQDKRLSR
Assay: radioisotope enzymatic assay with STS isolated from human placenta and [3H]E1S
Type: biochemical
Conditions: 0.5 μM inhibitor concentration; substrate [3H]E1S, 3 nM; triplicate; read-out: residual STS activity [%]
quantityName: remaining activity at 0.5 µM
Put your answer as a value accompanied by its unit after it.

Past entries and their recorded results:
>>> result("NS(=O)(=O)Oc1ccc(-c2cn(-c3cc(Br)cc(Br)c3)nn2)cc1 [4l]")
"28.9%"
>>> result("Cc1cc(C)cc(-n2cc(-c3ccc(OS(N)(=O)=O)cc3)nn2)c1 [4f]")
"52.5%"
>>> result("NS(=O)(=O)Oc1ccc(-c2cn(-c3cc(I)cc(I)c3)nn2)cc1 [4m]")
"11.8%"

Q: Form entry - test system: STS isolated from the human placenta (Homo sapiens, UniProt P08842); read-out: remaining activity at 0.5 µM; compound: CCc1cccc(-n2cc(-c3ccc(OS(N)(=O)=O)cc3)nn2)c1 [4i]
Result: 14.5%

----------
Assay type: in vivo
Settings: Table S1, MTD study, 50 mg/kg
quantityName: MCH

Example compounds with recorded MCH:
>>> result("NS(=O)(=O)Oc1ccc(-c2cn(-c3cccc(F)c3)nn2)cc1 [5g]")
"17,2±0,2 pg"
>>> result("NS(=O)(=O)Oc1ccc(-c2cn(-c3cccc(Cl)c3)nn2)cc1 [4a]")
"17,3±0,3 pg"
>>> result("NS(=O)(=O)Oc1ccc(-c2cn(-c3ccc(F)c(F)c3F)nn2)cc1 [5e]")
"17,1±0,2 pg"
>>> result("NS(=O)(=O)Oc1ccc(-c2cn(-c3cc(Cl)cc(Cl)c3)nn2)cc1 [4b]")
"17,4±0,01 pg"

Alright, here's another compound for you.
Q: Given the entry NS(=O)(=O)Oc1ccc(-c2cn(-c3cc(F)cc(F)c3)nn2)cc1 [5l] , report its measured MCH.
Result: 17,3±0,1 pg
